- Experimental Protocol: protein stability index of a GFP-peptide fusion (GPS, HEK-293T) (PSI 1-6); higher = more stable;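 note: 24-mer peptide tiles fused after GFP, lentivirally expressed, FACS-sorted into six equal bins by GFP/DsRed ratio, decoded by Illumina sequencing, PSI is the read-weighted mean bin number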
- Condition Description: treatment: DMSO; c terminus: a fixed tail appended
Endpoint: protein stability index

See these solved cases before continuing.
RMPLLTPRYITDVIDAEPFIRCSL [KLHL12] : 2.27
FIFTFVKKKKIGFYFEVCGMMVES [PCDHGA10] : 3.34
DVVKTQRQVALGAMEAVRVNPLHV [SLC25A39] : 3.05
LSLGLATVDIQNPDITSSRYRGLP [WAS] : 2.96

// batch mode: one protein stability index value per listed entry
1. CSHNLCQACARNILVQTPESESPQ [TRIM9]
2. EPERQVQHEESTEGEADHSGYAGE [UFD1]
3. QACMGGRCLHMDQLQDFNIPQAGG [ADAMTS4]
4. NRNQRIVQLIQDTRIHILPSMNPD [CPN1]
5. GLKKLNLHEEEHVLLMAICIVSPD [VDR]
6. SFLNVTKSSLIWSYPAGSLTFPVR [TRIM43]
7. QKKQKLEQKAAGSASAKRVWNMTA [FATE1]

RESULT:
1: 3.57; 2: 5.61; 3: 3.38; 4: 2.95; 5: 3.13; 6: 1.89; 7: 4.01

// batch mode: one protein stability index value per listed entry
1. KPDSVGLPPCAVRNLQDLARIYIR [PCMTD1]
2. GSSIPWNHLPDPEIFRQRFRQFGY [ZNF24]
3. TEEVKFYQLGEEALLKFREDEGFV [KCNA4]
4. NGNGKNGGLEHVPSSSSIHNGDME [BNIP3L]
5. AAQPMQPLPESLASLHPSVSPGSP [PLAGL1]

RESULT:
1: 2.94; 2: 2.49; 3: 4.16; 4: 5.28; 5: 5.2

// batch mode: one protein stability index value per listed entry
1. PDFILKVVIDKHPVRFFVHKRPHV [CTDNEP1]
2. RTDEELQPPTTTVARSGTPAVENK [PLK2]
3. ERSDPVEQGKPVIPAAVLAGFTGS [ETS2]
4. KMREFTKTIKRPFGVKYNPYTRSI [TPH1]
5. TGNVCIEEIDVDGKFIRLKNTSEQ [LMNB1]
6. LTLSQYILLDPILMFFIMAAMLSM [POMT2]

RESULT:
2.46
5.42
4.59
2.25
4.76
3.29

// batch mode: one protein stability index value per listed entry
1. FSTGIKMGQHISLAPIHKLEEALY [MNAT1]
2. KPHRCHNCGKSFSRLTALTLHQRT [ZNF449]
3. GTIKKIIHQETVSKNGNGLKNTPR [PCMTD2]
4. KAGRRMFPACRVSVTGLDPEARYL [TBX6]

RESULT:
2.28
2.46
3.68
2.36

QUERY: # get_value(readout='protein stability index', item= YHRRHNPKTNEDFEFLYNALEFWR [IQUB] )
RESULT: 1.86
